The measured values listed here are drawn from ChEMBL document CHEMBL1201862.

System: ACHN
assayText: NCI tumour cell line growth inhibition, 48 h
Active and inactive are the calls of the source. No stated cut-off is given here; in the data, active = GI50 up to about 1.1 µM and inactive = higher.
assayReadout: GI50

Use the examples below as a reference point.
>  <compound>
N#CN1CC[C@@H]2CC3(CCC2C1)OCCO3 (stereo not given in full)

>  <GI50>
> 100 µM (inactive)

$$$$
>  <compound>
Nc1nc(N)c(Cn2ccnc2)c(O)n1

>  <GI50>
> 100 µM (inactive)

$$$$
>  <compound>
CNC1=Nc2ccc(Cl)cc2C(c2ccccc2)=NN1C

>  <GI50>
> 100 µM (inactive)

$$$$
>  <compound>
CN(C)CCCc1cccnc1

>  <GI50>
> 100 µM (inactive)

$$$$
>  <compound>
CCOc1c(OC)cc(CNNc2nccs2)cc1OC

>  <GI50>
> 100 µM (inactive)

$$$$

stdin: Lab request: please report GI50 under test system ACHN for N#CCc1nc(-c2cc3ccccc3oc2=O)cs1
stdout: 42.5 µM (inactive)

---

Test system: MDA-N
assayText: NCI tumour cell line growth inhibition, 48 h
The source made the active and inactive calls. No stated cut-off is given here; in the data, active = GI50 up to about 1.1 µM and inactive = higher.
Answer with one of the outcomes given here: 1 (active), -1 (inactive)

stdin: Hey, what did the test say about O=C1/C(=C/c2ccco2)N=C2Sc3c([nH]cnc3=O)N12 ?
stdout: -1

---

System: OVCAR-3
assayText: NCI tumour cell line growth inhibition, 48 h
Activity calls are given as the source filed them. Rule as the data show it: active = GI50 up to about 1.1 µM and inactive = higher.
Measured GI50 by item

Use the examples below as a reference point.
>  <smilesNotation>
[N-]=[N+]=Nc1c(N2CCOCC2)c(Cl)nc2ccccc12

>  <subjectOfTest>
OVCAR-3

>  <GI50>
43.5 µM (inactive)

$$$$
>  <smilesNotation>
CC1=C(C(=O)Nc2ccccc2C)C(c2ccccc2C)C(C(=O)Nc2ccccc2C)=C(C)N1

>  <subjectOfTest>
OVCAR-3

>  <GI50>
16.6 µM (inactive)

$$$$

Attention now shifts to the item below.
stdin: Value lookup for GI50; key = Cc1nc(N)nc(N)c1N1CCN(Cc2ccccc2)CC1
stdout: 47.8 µM (inactive)

---

System: M14
assayText: NCI tumour cell line growth inhibition, 48 h
The source made the active and inactive calls. Rule as the data show it: active = GI50 up to about 1.1 µM and inactive = higher.
assayReadout: GI50

>  <compound>
O=C(CC(=O)c1ccc([N+](=O)[O-])cc1)C(=O)Nc1nccs1

>  <GI50>
> 100 µM (inactive)

$$$$
>  <compound>
Cc1nc(N)nc(N)c1CCCCc1ccccc1

>  <GI50>
6.21 µM (inactive)

$$$$
>  <compound>
CN(NC(=O)CCCl)C1=NCCN1

>  <GI50>
> 100 µM (inactive)

$$$$
>  <compound>
C=C1[C@@H](C)[C@H]2[C@H](Cc3ccccc3)NC(=O)[C@]23OC(=O)/C=C/[C@H](O)CCC[C@@H](C)C/C=C/[C@H]3[C@@H]1O

>  <GI50>
> 100 µM (inactive)

$$$$
>  <compound>
CCOC(=O)Cn1c(=O)[nH]c(=O)c2c1ncn2Cc1ccccc1

>  <GI50>
> 100 µM (inactive)

$$$$

stdin: Value lookup for GI50; key = COc1cc(Nc2nc3c(N)cc(C(F)(F)F)cc3nc2-c2ccccc2)cc(OC)c1OC
stdout: 66.2 µM (inactive)

stdin: Then N/C(=N\N=C\c1cc2ccccc2s1)c1cnccn1 ?
stdout: > 100 µM (inactive)

stdin: Then Nc1ccc(S(=O)(=O)Nc2nc3ccccc3nc2N2CCCCCC2)cc1 ?
stdout: 37.2 µM (inactive)

stdin: Then O=C(Cn1c(=O)oc2ccc(C(=O)c3ccccc3Cl)cc21)c1ccc([N+](=O)[O-])cc1 ?
stdout: 18.4 µM (inactive)

stdin: Then O=C1CCCN1C(=O)CS(=O)(=O)c1ccccc1 ?
stdout: > 100 µM (inactive)
